Test system: CEM/VM1
Experiment description: FMCA, CEM/VM1 teniposide-resistant leukaemia
Format: cell-based
Test settings: Homo sapiens, read-out: EC50 (μM) in various cancer cell lines: CEM/VM1
Threshold-based label: EC50 under 0.2 µM gives Met, EC50 not under 0.2 µM gives Not met.

- COc1ccc2[nH]cc(CCNc3nccc(NCc4ccc5[nH]ccc5c4)n3)c2c1 [Example 12]: Met
- c1cc(Nc2nccc(NCc3ccc4[nH]ccc4c3)n2)c2cn[nH]c2c1 [Example 76]: Not met
- c1cc(Nc2nccc(NCc3ccc4[nH]ccc4c3)n2)c2cc[nH]c2c1 [Example 1]: Met
- COc1ccc2[nH]cc(CCNc3nc(C)cc(NCc4ccc5[nH]ccc5c4)n3)c2c1 [Example 84]: Met
- COc1ccc2[nH]cc(CCNc3nccc(NCc4ccc5[nH]c(C)cc5c4)n3)c2c1 [Example 64]: Met

is_below(EC50, 0.2 µM) for Cc1cc2cc(Nc3ccnc(NCc4ccc5[nH]cnc5c4)n3)ccc2[nH]1 [Example 67] ?
Not met

Could you please tell me whether EC50 recorded for c1cc(Nc2nccc(NCc3ccc4[nH]cnc4c3)n2)c2cc[nH]c2c1 [Example 19] is less than 0.2 µM?
Not met

Item Cc1cc(NCc2ccc3[nH]ncc3c2)nc(Nc2cccc3[nH]ccc23)n1 [Example 37] : EC50 beneath 0.2 µM, strictly?
Not met

Identify whether the molecule Cc1cc2cc(Nc3ccnc(NCc4ccc5[nH]ccc5c4)n3)ccc2[nH]1 [Example 24] records EC50 below 0.2 µM.
Not met

Could you please tell me whether EC50 recorded for COc1ccc2[nH]cc(CCNc3nccc(NCc4ccc5[nH]ncc5c4)n3)c2c1 [Example 66] is less than 0.2 µM?
Not met

---

System: 8226/Dox40
Experiment description: FMCA, 8226/Dox40 doxorubicin-resistant myeloma
Format: cell-based
Test settings: read-out: EC50 (μM) in various cancer cell lines: 8226/Dox40
Source text: The Fluorometric Microculture Cytotoxicity Assay, FMCA, is a three day non-clonogenic microplate-based cell viability assay used for measurement of the cytotoxic and/or cytostatic effect of compounds in vitro (Lindhagen, E., et al. Nat Protoc, 2008. 3(8): p. 1364-9). […]
Recorded endpoint: EC50 (µM)
Field: numeric (µM). Do not append units.

Look over these answered cases.
- Cc1cc2cc(Nc3ccnc(NCc4ccc5[nH]cnc5c4)n3)ccc2[nH]1 [Example 67]: 24.4
- Cc1cc(NCc2ccc3[nH]ncc3c2)nc(Nc2cccc3[nH]ccc23)n1 [Example 37]: 2.02
- COc1ccc2[nH]cc(CCNc3nccc(NCc4ccc5[nH]ncc5c4)n3)c2c1 [Example 66]: 10

Output EC50 of COc1ccc2[nH]cc(CCNc3nccc(NCc4ccc5[nH]c(C)cc5c4)n3)c2c1 [Example 64]
1.19

---

System: U-937
Experiment description: FMCA, U-937 lymphoma
Type: cell-based
Test settings: Homo sapiens, read-out: EC50 (μM) in various cancer cell lines: U-937
From the text: The Fluorometric Microculture Cytotoxicity Assay, FMCA, is a three day non-clonogenic microplate-based cell viability assay used for measurement of the cytotoxic and/or cytostatic effect of compounds in vitro (Lindhagen, E., et al. Nat Protoc, 2008. 3(8): p. 1364-9). […]
Define the label as Satisfied when EC50 is strictly less than 0.3 µM and as Not satisfied in all remaining cases.

Consider the following illustrative entries.
* c1cc(Nc2nccc(NCc3ccc4[nH]cnc4c3)n2)c2cc[nH]c2c1 [Example 19] | Not satisfied
* Cc1cc2cc(Nc3ccnc(NCc4ccc5[nH]ccc5c4)n3)ccc2[nH]1 [Example 24] | Satisfied
* COc1ccc2[nH]cc(CCNc3nccc(NCc4ccc5[nH]c(C)cc5c4)n3)c2c1 [Example 64] | Satisfied
* COc1ccc2[nH]cc(CCNc3nc(C)cc(NCc4ccc5[nH]ccc5c4)n3)c2c1 [Example 84] | Satisfied
* COc1ccc2[nH]cc(CCNc3nccc(NCc4ccc5[nH]ccc5c4)n3)c2c1 [Example 12] | Satisfied
* Cc1cc2cc(Nc3ccnc(NCc4ccc5[nH]cnc5c4)n3)ccc2[nH]1 [Example 67] | Satisfied

Bench note: check whether COc1ccc2[nH]cc(CCNc3nccc(NCc4ccc5[nH]ncc5c4)n3)c2c1 [Example 66] shows EC50 below 0.3 µM
Not satisfied

Confirm or reject: EC50 of c1cc(Nc2nccc(NCc3ccc4[nH]ccc4c3)n2)c2cc[nH]c2c1 [Example 1] lies strictly below 0.3 µM
Satisfied

is_below(EC50, 0.3 µM) for c1cc(Nc2nccc(NCc3ccc4[nH]ccc4c3)n2)c2cn[nH]c2c1 [Example 76] ?
Satisfied

Is EC50 strictly under 0.3 µM for the entry Cc1cc(NCc2ccc3[nH]ncc3c2)nc(Nc2cccc3[nH]ccc23)n1 [Example 37] ?
Satisfied
